biological target: UDP-N-acetylglucosamine 1-carboxyvinyltransferase (Escherichia coli K-12) (UniProt P0A749); assay: Inhibition of recombinant Escherichia coli MurA expressed in Escherichia coli NiCo21 assessed as residual activity using UNAG and PEP as substrate at 500 uM preincubated for 30 mins in presence of UNAG followed by PEP substrate addition and measured after 15 mins by malachite green based colorimetric assay; conditions: time 45.0 min
Sequence (P0A749 whole entry): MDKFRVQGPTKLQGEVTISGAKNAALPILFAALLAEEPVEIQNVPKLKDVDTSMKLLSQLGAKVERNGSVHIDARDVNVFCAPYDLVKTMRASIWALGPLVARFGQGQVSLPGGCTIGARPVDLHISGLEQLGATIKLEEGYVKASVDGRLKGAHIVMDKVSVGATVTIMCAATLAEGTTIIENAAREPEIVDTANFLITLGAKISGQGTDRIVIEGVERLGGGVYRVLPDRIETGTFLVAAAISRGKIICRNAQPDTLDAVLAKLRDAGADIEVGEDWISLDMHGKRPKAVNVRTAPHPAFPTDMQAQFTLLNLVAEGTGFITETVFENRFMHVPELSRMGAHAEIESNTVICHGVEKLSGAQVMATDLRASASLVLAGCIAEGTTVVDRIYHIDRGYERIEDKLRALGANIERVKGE
Returns one of Met or Not met; Met when Activity is >= 80%.

Ask | Quick check, Activity >= 80%? "O=C(CCl)N1CCOCC1"
Reply | Met

Ask | Please give the result for "COC(=O)c1ccc(NC(=O)CCl)o1" too.
Reply | Not met

Ask | Please give the result for "O=C(CCl)N1CCc2ccccc2C1" too.
Reply | Not met

Ask | Please give the result for "O=C(O)C1CCN(C(=O)CCl)CC1" too.
Reply | Met

Ask | Please give the result for "O=C(CCl)Nc1nccs1" too.
Reply | Not met
